Target: UniProt P26358
Sequence (P26358 whole entry, looked up): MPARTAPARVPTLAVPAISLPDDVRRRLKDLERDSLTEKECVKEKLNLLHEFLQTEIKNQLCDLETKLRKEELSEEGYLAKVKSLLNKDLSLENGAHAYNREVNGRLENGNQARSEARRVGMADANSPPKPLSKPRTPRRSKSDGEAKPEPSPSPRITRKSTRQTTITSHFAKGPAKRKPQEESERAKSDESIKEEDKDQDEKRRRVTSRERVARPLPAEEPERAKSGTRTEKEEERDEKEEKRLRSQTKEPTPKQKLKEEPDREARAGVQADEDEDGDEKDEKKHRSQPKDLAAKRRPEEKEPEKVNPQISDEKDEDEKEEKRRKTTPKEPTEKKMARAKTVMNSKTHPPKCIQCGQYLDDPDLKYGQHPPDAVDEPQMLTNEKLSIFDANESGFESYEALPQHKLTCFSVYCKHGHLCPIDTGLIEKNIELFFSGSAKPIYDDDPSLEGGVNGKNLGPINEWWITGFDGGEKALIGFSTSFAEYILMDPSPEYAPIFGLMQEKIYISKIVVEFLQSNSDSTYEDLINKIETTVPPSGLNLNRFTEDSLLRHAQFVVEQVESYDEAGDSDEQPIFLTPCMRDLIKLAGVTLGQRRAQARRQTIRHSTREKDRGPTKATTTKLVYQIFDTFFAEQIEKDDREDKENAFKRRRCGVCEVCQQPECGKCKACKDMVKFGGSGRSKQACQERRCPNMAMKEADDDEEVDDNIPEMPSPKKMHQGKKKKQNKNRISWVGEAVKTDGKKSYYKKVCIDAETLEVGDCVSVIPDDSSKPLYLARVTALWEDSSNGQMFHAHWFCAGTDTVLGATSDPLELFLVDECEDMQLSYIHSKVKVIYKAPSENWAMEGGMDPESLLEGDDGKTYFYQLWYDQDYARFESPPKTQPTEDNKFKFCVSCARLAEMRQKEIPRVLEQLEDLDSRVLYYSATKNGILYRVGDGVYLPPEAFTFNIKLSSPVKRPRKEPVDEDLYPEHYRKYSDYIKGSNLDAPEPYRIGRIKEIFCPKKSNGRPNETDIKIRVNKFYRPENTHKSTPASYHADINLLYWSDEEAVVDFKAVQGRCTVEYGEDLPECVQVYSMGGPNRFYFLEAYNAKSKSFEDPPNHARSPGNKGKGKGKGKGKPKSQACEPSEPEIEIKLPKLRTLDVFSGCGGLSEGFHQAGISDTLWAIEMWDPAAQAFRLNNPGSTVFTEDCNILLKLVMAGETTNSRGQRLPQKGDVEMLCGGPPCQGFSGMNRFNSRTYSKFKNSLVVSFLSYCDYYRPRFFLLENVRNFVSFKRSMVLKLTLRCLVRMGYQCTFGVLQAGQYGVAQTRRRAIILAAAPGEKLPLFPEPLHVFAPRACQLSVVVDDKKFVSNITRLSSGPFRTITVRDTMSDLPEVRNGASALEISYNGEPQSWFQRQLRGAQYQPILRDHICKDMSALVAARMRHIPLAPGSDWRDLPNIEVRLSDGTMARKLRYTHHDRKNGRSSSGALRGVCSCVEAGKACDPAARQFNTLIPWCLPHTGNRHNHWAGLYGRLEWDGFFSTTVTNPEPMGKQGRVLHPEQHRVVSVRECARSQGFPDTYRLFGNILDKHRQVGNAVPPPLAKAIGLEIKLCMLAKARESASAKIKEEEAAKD
Test: DNMT1 biochemical activity, breaklight assay and/or SPA assay
Details: binned activity in either the breaklight or the SPA assay; read-out: DNMT1 BioChemical (pIC50 category) (converted)
Listed next: entries and their corresponding IC50.

Could you tell me which IC50 is on file for CCc1c(C#N)c(SC(C(N)=O)c2ccccc2)nc(N2CCN(C(=O)c3ccc(Br)cc3)CC2)c1C#N (centres unmarked) ?
1000 to 31600 nM

====

Biological target: DNMT3B (Homo sapiens (Human), UniProt Q9UBC3)
Assay: DNMT3B breaklight assay
Assay type: biochemical
Settings: read-out: DNMT3B Breaklight IC50
measurement-kind: IC50

> print(dat)
                                   molecule    result
1  CCc1c(C#N)c(SCc2ccc(S(N)(=O)=O)cc2)nc(N2CCCN(C)CC2)c1C#N  > 250 µM

Look at this molecule and give its reported IC50. CCc1c(C#N)c(SC(C(N)=O)c2ccccc2)nc(N2CCOCC2)c1C#N (stereo not shown)
> 500 µM

Dear colleague, I am looking for the recorded IC50 of the following molecule: N#Cc1c(N)nc(SC(C(N)=O)c2ccccc2)c(C#N)c1C1CC1 (stereo not shown)
> 500 µM

What measured IC50 goes with CCc1c(C#N)c(SCc2ccc(S(=O)(=O)NC)cc2)nc(N2CCCN(C)CC2)c1C#N ?
254 µM
